Reference source for all entries: ChEMBL document CHEMBL4808199

The compounds listed here are annotated with their IC50.
Test system: CWR22R
assayName: Cytotoxicity against human 22Rv1 cells
Type: functional, cell-based

| smilesEntry | systemTested | IC50 |
| --- | --- | --- |
| CO[C@H]1/C=C\C=C(/C)C(=O)NC2=CC(=O)C(O)=C(C[C@@H](C)C[C@H](OC)[C@H](O)[C@@H](C)/C=C(\C)[C@@H]1OC(N)=O)C2=O | CWR22R | 25 µM |
| CC[C@@H]1[C@@H](C)O[C@@](OC)([C@@H](C)[C@H](O)[C@H](C)[C@H]2OC(=O)/C=C/C=C/[C@H](C)[C@@H]([C@@H](C)[C@@H](O)[C@H](C)[C@@]3(OC)C[C@@H](OC)[C@H](CC)[C@@H](C)O3)OC(=O)/C=C/C=C/[C@@H]2C)C[C@H]1OC | CWR22R | > 40 µM |
| CO[C@H]1C[C@H](C)Cc2cc(O)cc(c2)NC(=O)/C(C)=C/CC[C@H](OC)[C@@H](OC(N)=O)/C(C)=C/[C@H](C)[C@H]1O | CWR22R | 35 µM |
